Where do the numbers come from? From ChEMBL document CHEMBL4130363.

# system_under_test: 5-hydroxytryptamine receptor 1B (Homo sapiens) (UniProt P28222)
# Sequence (P28222 whole entry): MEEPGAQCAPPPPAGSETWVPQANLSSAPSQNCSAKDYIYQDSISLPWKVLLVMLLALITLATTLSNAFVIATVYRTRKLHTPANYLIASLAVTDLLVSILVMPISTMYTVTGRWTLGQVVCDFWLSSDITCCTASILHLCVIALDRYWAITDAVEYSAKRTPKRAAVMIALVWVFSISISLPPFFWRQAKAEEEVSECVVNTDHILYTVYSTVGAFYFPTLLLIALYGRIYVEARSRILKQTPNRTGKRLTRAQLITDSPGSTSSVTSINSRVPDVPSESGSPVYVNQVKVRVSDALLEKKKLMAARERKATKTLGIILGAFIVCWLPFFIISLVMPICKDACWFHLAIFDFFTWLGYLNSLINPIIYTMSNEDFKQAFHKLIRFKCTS
# protocol_text: Agonist activity at recombinant human 5-HT1B at 10 uM by GTPgamma[35S] binding-based assay relative to agonist
# Assay type: functional
test_readout: Activity (%)

>>> print(df.to_string())
                            molecule_smiles  test_readout  units_label  value_observed
0        COc1ccc(C(=O)NCCCN(C)Cc2ccccc2)cc1      Activity            %               7
1  CN(CCCNC(=O)c1ccc(C(F)(F)F)cc1)Cc1ccccc1      Activity            %              -1

(A) CN(CCCNC(=O)c1ccc(Cl)cc1)CCc1ccccc1
(B) CN(CCCNC(=O)c1ccc([N+](=O)[O-])cc1)Cc1ccccc1
(C) CN(CCCNC(=O)c1ccc(Br)cc1)Cc1ccccc1
(D) CN(CCNC(=O)c1ccc(C#N)cc1)Cc1ccccc1
Q: Kindly order the items shown according to Activity, from the highest value down. To answer, arrange all of the labels according to the requested order.
Result: C, B, A, D
(C: 10%, B: 7%, A: 1%, D: -12%)

* * *

# system_under_test: Beta-1 adrenergic receptor (Homo sapiens) (UniProt P08588)
# Sequence (P08588 whole entry, looked up): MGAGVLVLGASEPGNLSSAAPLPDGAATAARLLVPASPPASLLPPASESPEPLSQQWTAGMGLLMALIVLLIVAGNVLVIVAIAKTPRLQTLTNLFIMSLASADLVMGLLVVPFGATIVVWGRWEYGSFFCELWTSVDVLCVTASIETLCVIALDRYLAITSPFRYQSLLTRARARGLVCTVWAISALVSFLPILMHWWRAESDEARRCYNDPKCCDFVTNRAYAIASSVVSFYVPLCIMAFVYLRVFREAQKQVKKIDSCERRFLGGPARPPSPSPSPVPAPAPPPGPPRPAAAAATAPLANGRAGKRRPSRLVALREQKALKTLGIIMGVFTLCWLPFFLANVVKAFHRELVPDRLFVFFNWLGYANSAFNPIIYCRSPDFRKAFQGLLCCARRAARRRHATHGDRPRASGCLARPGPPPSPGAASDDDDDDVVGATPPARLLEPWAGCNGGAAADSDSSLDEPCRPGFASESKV
# protocol_text: Antagonist activity at recombinant human beta-1 adrenergic receptor assessed as inhibition of agonist-induced cAMP induction at 10 uM by HTRF assay
# Assay type: functional
test_readout: inhibition (%)

In [3]: df
Out[3]:
                       molecule_smiles  test_readout  units_label  value_observed
0  CCCc1ccc(C(=O)NCCCN(C)Cc2ccccc2)cc1    inhibition            %              11
1   CN(CCCNC(=O)c1cccc(Br)c1)Cc1ccccc1    inhibition            %              12
2   CN(CCNC(=O)c1ccc(C#N)cc1)Cc1ccccc1    inhibition            %               9

(A) CN(CCCNC(=O)c1ccc(Cl)cc1)CCc1ccccc1
(B) COc1ccc(C(=O)NCCCN(C)Cc2ccccc2)cc1
(C) CN(CCNC(=O)c1ccc(Cl)cc1)Cc1ccccc1
Q: Hey, quick one: sort these by inhibition, low to high? Enter labels, ranked according to the request.
Result: B, C, A

* * *

# system_under_test: Endothelin-1 receptor (Homo sapiens)
# Sequence (whole entry): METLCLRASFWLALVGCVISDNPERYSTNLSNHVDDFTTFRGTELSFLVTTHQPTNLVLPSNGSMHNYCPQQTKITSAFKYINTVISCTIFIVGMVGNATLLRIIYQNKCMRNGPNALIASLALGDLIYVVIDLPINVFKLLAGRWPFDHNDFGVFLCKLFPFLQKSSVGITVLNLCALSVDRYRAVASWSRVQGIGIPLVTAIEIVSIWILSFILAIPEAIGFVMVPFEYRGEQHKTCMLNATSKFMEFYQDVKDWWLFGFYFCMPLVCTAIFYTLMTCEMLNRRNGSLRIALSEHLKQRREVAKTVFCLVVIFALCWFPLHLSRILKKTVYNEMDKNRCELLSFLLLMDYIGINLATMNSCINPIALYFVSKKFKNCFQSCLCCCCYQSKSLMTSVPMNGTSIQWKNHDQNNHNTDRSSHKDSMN
# protocol_text: Agonist activity at recombinant human ETA receptor at 10 uM by aequorin reporter based assay relative to agonist
# Assay type: functional
test_readout: Activity (%)

Example compounds with recorded Activity:
>>> print(df.to_string())
                            molecule_smiles  test_readout  value_observed
0        CN(CCNC(=O)c1ccc(C#N)cc1)Cc1ccccc1      Activity              -1
1  CN(CCCNC(=O)c1ccc([N+](=O)[O-])cc1)Cc1ccccc1      Activity              -1
2        CN(CCCNC(=O)c1ccc(Br)cc1)Cc1ccccc1      Activity               1

(A) CN(CCCNC(=O)c1ccc(Cl)cc1)Cc1ccccc1
(B) CN(CCNC(=O)c1ccc(Cl)cc1)Cc1ccccc1
Q: Compare Activity: is it lower for A or for B ? Lab note: record the label of whichever item you select.
Result: B
(B: -1%, A: 0%)

* * *

# system_under_test: Beta-1 adrenergic receptor (Homo sapiens) (UniProt P08588)
# protocol_text: Antagonist activity at recombinant human beta-1 adrenergic receptor assessed as inhibition of agonist-induced cAMP induction at 10 uM by HTRF assay
# Format: functional
test_readout: inhibition (%)

>>> print(df.to_string())
                      molecule_smiles  value_observed
0  CN(CCCNC(=O)c1ccc(Br)cc1)Cc1ccccc1               9
1  COc1cccc(C(=O)NCCCN(C)Cc2ccccc2)c1              -5

(P) CN(CCCNC(=O)c1ccc(C(F)(F)F)cc1)Cc1ccccc1
(Q) CN(CCCNC(=O)c1ccc(Cl)cc1)Cc1ccccc1
Q: For this pair, P and Q , which shows a numerically higher inhibition? API: response body contains the label of the selected item.
Result: P
(P: 12%, Q: 8%)

(I) CN(CCNC(=O)c1ccc([N+](=O)[O-])cc1)Cc1ccccc1
(II) CN(CCCNC(=O)c1ccc([N+](=O)[O-])cc1)Cc1ccccc1
Q: Would you mind telling me which has the lower recorded inhibition between I and II ? Answer = label.
Result: I
(I: -2%, II: 6%)

* * *

# system_under_test: Somatostatin receptor type 4 (Homo sapiens)
# protocol_text: Antagonist activity at human somatostatin receptor 4 assessed as inhibition of agonist-induced effect at 10 uM by GTPgamma[35S] binding-based assay
# Assay type: functional
test_readout: inhibition (%)

Some solved entries appear below for comparison.
>>> print(df.to_string())
                      molecule_smiles                         system_under_test  units_label  value_observed
0  CN(CCCNC(=O)c1ccc(Cl)cc1)Cc1ccccc1  Somatostatin receptor type 4 (Homo sapiens)            %              20
1  COc1cccc(C(=O)NCCCN(C)Cc2ccccc2)c1  Somatostatin receptor type 4 (Homo sapiens)            %              25
2  CN(CCCNC(=O)c1cccc(Br)c1)Cc1ccccc1  Somatostatin receptor type 4 (Homo sapiens)            %              21

(P) CN(CCCNC(=O)c1ccc(Cl)cc1)CCc1ccccc1
(Q) CCCc1ccc(C(=O)NCCCN(C)Cc2ccccc2)cc1
(R) CN(CCNC(=O)c1ccc(Cl)cc1)Cc1ccccc1
Q: Which order do these items take when sorted by rising inhibition? List them. // respond by listing labels in the order requested
Result: P, R, Q

* * *

# system_under_test: Beta-2 adrenergic receptor (Homo sapiens) (UniProt P07550)
# Sequence (P07550 whole entry, looked up): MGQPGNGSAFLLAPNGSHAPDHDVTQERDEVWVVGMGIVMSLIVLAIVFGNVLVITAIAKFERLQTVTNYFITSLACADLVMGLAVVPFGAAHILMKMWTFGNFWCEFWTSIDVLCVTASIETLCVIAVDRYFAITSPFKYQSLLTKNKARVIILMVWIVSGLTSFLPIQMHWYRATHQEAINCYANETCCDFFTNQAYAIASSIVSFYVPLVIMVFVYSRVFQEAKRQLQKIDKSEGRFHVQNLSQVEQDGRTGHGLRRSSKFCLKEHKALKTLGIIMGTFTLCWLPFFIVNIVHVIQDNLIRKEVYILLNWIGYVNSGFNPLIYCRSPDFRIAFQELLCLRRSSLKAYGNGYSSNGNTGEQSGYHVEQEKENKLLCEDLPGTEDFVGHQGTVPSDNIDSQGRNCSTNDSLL
# protocol_text: Agonist activity at recombinant human beta-2 adrenergic receptor assessed as induction of cAMP levels at 10 uM by HTRF assay relative to agonist
# Type: functional
test_readout: Activity (%)

Here are 4 molecules together with their reported answers.
In [3]: df
Out[3]:
                            molecule_smiles  test_readout  value_observed
0       CCCc1ccc(C(=O)NCCCN(C)Cc2ccccc2)cc1      Activity               6
1  CN(CCNC(=O)c1ccc([N+](=O)[O-])cc1)Cc1ccccc1      Activity               3
2        COc1cccc(C(=O)NCCCN(C)Cc2ccccc2)c1      Activity               8
3        COc1ccc(C(=O)NCCCN(C)Cc2ccccc2)cc1      Activity               8

(P) CN(CCCNC(=O)c1ccc([N+](=O)[O-])cc1)Cc1ccccc1
(Q) CN(CCCNC(=O)c1ccc(Br)cc1)Cc1ccccc1
Q: Which value of Activity is numerically greater: that of P or that of Q ? Returns: label corresponding to the selected item.
Result: Q
(Q: 2%, P: -2%)

* * *

# system_under_test: Adenosine receptor A3 (Homo sapiens)
# protocol_text: Agonist activity at recombinant human adenosine A3 receptor […] at 10 uM by HTRF assay relative to agonist
# Format: functional
test_readout: Activity (%)

# annotated cases, reported Activity shown
In [3]: df
Out[3]:
                            molecule_smiles  units_label  value_observed
0  CN(CCCNC(=O)c1ccc([N+](=O)[O-])cc1)Cc1ccccc1            %              -1
1  CN(CCNC(=O)c1ccc([N+](=O)[O-])cc1)Cc1ccccc1            %              -1
2        CN(CCCNC(=O)c1ccc(Br)cc1)Cc1ccccc1            %              -6
3       CN(CCCNC(=O)c1ccc(Cl)cc1)CCc1ccccc1            %              -6

(P) COc1ccc(C(=O)NCCCN(C)Cc2ccccc2)cc1
(Q) CN(CCCNC(=O)c1ccc(C(F)(F)F)cc1)Cc1ccccc1
Q: I'm curious whether P or Q has the smaller Activity number. Which is it? Identify your pick by its label.
Result: P
(P: -5%, Q: 7%)
